Catalogue of compounds with associated Percent Effect
system: Wolbachia pipientis; test: Anti-Wolbachia Cell-Based Screen; type: functional; set-up: scale not given: in the data most compounds retested in dose-response had high values; settings: 5 µM
The whole screen tested about 48,000 compounds, of which about 13,000 (27%) showed an effect of 50% or more. This is one part of the list.
Supply the numeric figure in %, leaving out any unit text.

> print(dat)
                                     smiles  measurement.name  test.result
1          N#Cc1cccnc1NCCNC(=O)NCCSC(F)(F)F    Percent Effect        18.52
2  C[C@H]1CN(CC2CCOCC2)C[C@@]12CCN(Cc1cccnc1)C2=O.O=C(O)C(F)(F)F.O=C(O)C(F)(F)F    Percent Effect        107.6

Next item in the queue.
Which measured Percent Effect value corresponds to C[C@@H]1CN(S(C)(=O)=O)C[C@]12CCN(Cc1cccnc1)C2=O.O=C(O)C(F)(F)F ?
104.4
